Target: ACVR2B, Q13705
Sequence (Q13705 whole entry, looked up): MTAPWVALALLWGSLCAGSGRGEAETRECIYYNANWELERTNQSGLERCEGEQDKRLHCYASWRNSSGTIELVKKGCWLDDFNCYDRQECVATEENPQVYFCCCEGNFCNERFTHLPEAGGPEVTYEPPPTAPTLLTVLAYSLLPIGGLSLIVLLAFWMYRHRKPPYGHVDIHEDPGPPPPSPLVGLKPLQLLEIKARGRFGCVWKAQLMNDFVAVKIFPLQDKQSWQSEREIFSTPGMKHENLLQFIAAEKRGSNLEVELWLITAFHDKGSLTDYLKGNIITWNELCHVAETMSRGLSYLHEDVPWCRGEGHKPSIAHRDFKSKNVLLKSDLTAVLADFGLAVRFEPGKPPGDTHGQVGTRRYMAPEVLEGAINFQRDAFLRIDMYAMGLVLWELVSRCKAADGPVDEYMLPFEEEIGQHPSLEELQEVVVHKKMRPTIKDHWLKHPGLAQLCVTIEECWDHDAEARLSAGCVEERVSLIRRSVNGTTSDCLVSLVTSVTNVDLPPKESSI
Experiment: Kd (SPR)
Entries and their Kd

>  <binder>
unnamed (protein) chain 1: QVQLVQSGAEVKKPGASVKVSCKASGYTFTSSYINWVRQAPGQGLEWMGTINPVSGSTSYAQKFQGRVTMTRDTSISTAYMELSRLRSDDTAVYYCARGGYTDYWGQGTLVTVSS chain 2: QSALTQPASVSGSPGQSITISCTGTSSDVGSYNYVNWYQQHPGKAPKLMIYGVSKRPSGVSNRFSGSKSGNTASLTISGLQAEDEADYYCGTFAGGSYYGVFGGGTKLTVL

>  <Kd [nM]>
101

$$$$
>  <binder>
unnamed (protein) chain 1: QVQLVQSGAEVKKPGASVKVSCKASGYTFTSSYINWVRQAPGQGLEWMGTINPVSGSTSYAQKFQGRVTMTRDTSISTAYMELSRLRSDDTAVYYCARSGYMDYWGQGTLVTVSS chain 2: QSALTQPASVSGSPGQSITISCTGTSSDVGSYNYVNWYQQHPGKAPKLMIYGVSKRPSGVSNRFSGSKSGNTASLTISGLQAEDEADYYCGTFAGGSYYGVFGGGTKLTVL

>  <Kd [nM]>
6.37

$$$$
>  <binder>
unnamed (protein) chain 1: QVQLVQSGAEVKKPGASVKVSCKASGYTFTSSYINWVRQAPGQGLEWMGTINPVTGNTSYAQKFQGRVTMTRDTSISTAYMELSRLRSDDTAVYYCARGGYFDYWGQGTLVTVSS chain 2: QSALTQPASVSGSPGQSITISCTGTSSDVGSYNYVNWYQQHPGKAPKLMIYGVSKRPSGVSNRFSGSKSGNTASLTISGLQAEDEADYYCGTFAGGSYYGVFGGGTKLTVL

>  <Kd [nM]>
10.3

$$$$
>  <binder>
unnamed (protein) chain 1: QVQLVQSGAEVKKPGASVKVSCKASGYTFTSSYINWVRQAPGQGLEWMGTINPVSGSTSYAQKFQGRVTMTRDTSISTAYMELSRLRSDDTAVYYCARGGDFDYWGQGTLVTVSS chain 2: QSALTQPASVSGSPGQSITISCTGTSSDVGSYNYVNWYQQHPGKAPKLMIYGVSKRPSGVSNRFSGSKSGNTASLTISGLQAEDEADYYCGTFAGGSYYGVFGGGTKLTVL

>  <Kd [nM]>
123

$$$$
>  <binder>
unnamed (protein) chain 1: QVQLVQSGAEVKKPGASVKVSCKASGYTFTSSHINWVRQAPGQGLEWMGTINPVTGNTSYAQKFQGRVTMTRDTSISTAYMELSRLRSDDTAVYYCARGGYFDYWGQGTLVTVSS chain 2: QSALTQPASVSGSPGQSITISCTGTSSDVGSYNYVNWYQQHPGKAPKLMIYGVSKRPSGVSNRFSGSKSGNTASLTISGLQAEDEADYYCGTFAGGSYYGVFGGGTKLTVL

>  <Kd [nM]>
162

$$$$

These data points were gathered from the FLAb antibody collection (doi:10.1101/2023.12.08.570889).
